Tested on: CYP1A1 mRNA in primary human hepatocytes
experiment summary: CYP1A1 mRNA expression in primary human hepatocytes
Assay type: cell-based
condition notes: hepatocyte culture LH47, 50 µM, 24 h
measure name: CYP1A1 mRNA fold induction over the vehicle-treated cells, LH47

compound: COc1cc(-c2[o+]c3cc(O)cc(O)c3cc2O[C@@H]2O[C@H](CO)[C@H](O)[C@H](O)[C@H]2O)cc(OC)c1O.[Cl-] [MAL-3, malvidin-3-O-galactoside chloride]
result: 0.54 ± 0.02 fold

compound: C[C@@H]1O[C@@H](Oc2cc3c(O)cc(O)cc3[o+]c2-c2cc(O)c(O)c(O)c2)[C@H](O)[C@H](O)[C@H]1O.[Cl-] [DEL-5, delphinidin-3-O-rhamnoside chloride]
result: 0.26 ± 0.01 fold

compound: OCC1OC(Oc2cc3c(OC4OC(CO)C(O)C(O)C4O)cc(O)cc3[o+]c2-c2cc(O)c(O)c(O)c2)C(O)C(O)C1O.[Cl-] (stereo not drawn) [DEL-3, delphinidin-3,5-di-O-glucoside chloride]
result: 0.39 ± 0.06 fold

Provenance of the data: paper PMC3759295
